- Method Summary: PK study of the 12 alkaloids in rat plasma after oral administration of ZJ and FZJ extract (LC–MS/MS)
- Format: in vivo
- Measurement Setup: 3.38 g/kg; rat plasma, oral ZJ extract, mean ± SD, n = 6; read-out: MRT0→∞ (converted)

| Compound | MRT inf, h |
| --- | --- |
| COc1cc2c(cc1OC)C(=O)NCC2 [corydaldine] | 8.55 |
| COc1cc2c(cc1OC)-c1cc3ccc4c(c3c(=O)n1CC2)OCO4 [8-oxoepiberberine] | 12.3 |
| CCCCC=CCCCCCCCc1cc(=O)c2ccccc2n1C [evocarpine] | 6.52 |
| O=C1NCCc2cc3c(cc21)OCO3 [noroxyhydrastinine] | 11 |
| O=c1c2c3c(ccc2cc2n1CCc1cc4c(cc1-2)OCO4)OCO3 [8-oxocoptisine] | 13.5 |
| COc1ccc2cc3[n+](cc2c1OC)CCc1cc2c(cc1-3)OCO2 [berberine] | 8.58 |
| COc1cc2c(cc1OC)-c1cc3ccc4c(c3c[n+]1CC2)OCO4 [epiberberine] | 11.6 |
| Cn1c(=O)n(CCC2(O)C(=O)Nc3ccccc32)c(=O)c2ccccc21 (centres unmarked) [wuchuyuamide-I] | 5.22 |

---

Property: AUC(0-inf); scope: individual compounds
- Method Summary: PK study of the 12 alkaloids in rat plasma after oral administration of ZJ and FZJ extract (LC–MS/MS)
- Format: in vivo
- Measurement Setup: rat, in vivo, po, 3.76 g/kg

| Compound | AUC(0-inf) / ng·h/mL |
| --- | --- |
| C[n+]1c2n(c(=O)c3ccccc31)CCc1c-2[nH]c2ccccc12 [dehydroevodiamine] | 286 |
| c1c2c(cc3c1OCO3)-c1cc3ccc4c(c3c[n+]1CC2)OCO4 | 11.8 |
| COc1cc2c(cc1OC)-c1cc3ccc(OC)c(OC)c3c[n+]1CC2 | 18.9 |

---

Property: AUC(0-t); scope: individual compounds
- Method Summary: PK study of the 12 alkaloids in rat plasma after oral administration of ZJ and FZJ extract (LC–MS/MS)
- Assay type: in vivo
- Measurement Setup: rat, in vivo, po, 3.38 g/kg
Property Name: AUC(0-t) (ng·h/mL)

| Compound | Property Name | Value Measured |
| --- | --- | --- |
| C[n+]1c2n(c(=O)c3ccccc31)CCc1c-2[nH]c2ccccc12 [dehydroevodiamine] | AUC(0-t) | 532 |
| COc1cc2c(cc1OC)-c1cc3ccc(OC)c(OC)c3c[n+]1CC2 [palmatine] | AUC(0-t) | 88.3 |
| c1c2c(cc3c1OCO3)-c1cc3ccc4c(c3c[n+]1CC2)OCO4 [coptisine] | AUC(0-t) | 68.7 |

---

- Method Summary: Stability of analytes in rat plasma under storage conditions
- Type: physicochemical
- Measurement Setup: rat plasma, low QC concentration, n = 6

| Compound | Stability RE, 3 freeze-thaw cycles (%) |
| --- | --- |
| c1c2c(cc3c1OCO3)-c1cc3ccc4c(c3c[n+]1CC2)OCO4 | 6.92 |
| Cn1c(=O)n(CCC2(O)C(=O)Nc3ccccc32)c(=O)c2ccccc21 (centres unmarked) [wuchuyuamide-I] | 18.91 |
| COc1cc2c(cc1OC)-c1cc3ccc4c(c3c(=O)n1CC2)OCO4 [8-oxoepiberberine] | −14.18 |
| COc1cc2c(cc1OC)-c1cc3ccc(OC)c(OC)c3c[n+]1CC2 | −14.23 |
| C[n+]1c2n(c(=O)c3ccccc31)CCc1c-2[nH]c2ccccc12 [dehydroevodiamine] | 4.36 |
| COc1cc2c(cc1OC)C(=O)NCC2 | −1.98 |
| COc1cc2c(cc1OC)-c1cc3ccc4c(c3c[n+]1CC2)OCO4 [epiberberine] | −3.64 |
| CCCCC=CCCCCCCCc1cc(=O)c2ccccc2n1C | −19.16 |
| O=c1c2c3c(ccc2cc2n1CCc1cc4c(cc1-2)OCO4)OCO3 | 6.73 |
| O=C1NCCc2cc3c(cc21)OCO3 [noroxyhydrastinine] | −14.7 |
| COc1ccc2cc3[n+](cc2c1OC)CCc1cc2c(cc1-3)OCO2 | 7.87 |
